src = patent US5312831A

test system: CSF; experiment: Serum colony stimulating factor (CSF) assay in mice; type: in vivo, mouse; details: 0.1 mg/kg, serum 4 hours after injection
Listing of recorded CSF production, CFU/100,000 Bone Marrow Cells by entry.

Dear colleague, I am looking for the recorded CSF production, CFU/100,000 Bone Marrow Cells of the following compound: `CCCCCCC(=O)N[C@@H](C(=O)O)[C@@H](C)OC(=O)N[C@@H](CCC[C@@H](N)C(=O)O)C(=O)N[C@H](C)C(=O)O` 95 ± 16 CFU/100,000 Bone Marrow Cells

// repeat for `CCCCCCC(=O)N[C@@H](C(=O)O)[C@H](C)OC(=O)N[C@@H](CCC[C@@H](N)C(=O)O)C(=O)N[C@H](C)C(=O)O` and report 0 ± 0 CFU/100,000 Bone Marrow Cells

# repeat for `CCCCCCC(=O)N[C@H](COC(=O)N[C@@H](CCC[C@@H](N)C(=O)O)C(=O)N[C@H](C)C(=O)O)C(=O)O` 154 ± 5 CFU/100,000 Bone Marrow Cells

Same thing, different compound: CCCCCCC(=O)NC(CNC(=O)N[C@@H](CCCC(N)C(=O)O)C(=O)N[C@H](C)C(=O)O)C(=O)O (stereo partly shown) 129 ± 14 CFU/100,000 Bone Marrow Cells
